assay target: Fatty acid synthase (Homo sapiens)
Sequence (P49327 whole entry): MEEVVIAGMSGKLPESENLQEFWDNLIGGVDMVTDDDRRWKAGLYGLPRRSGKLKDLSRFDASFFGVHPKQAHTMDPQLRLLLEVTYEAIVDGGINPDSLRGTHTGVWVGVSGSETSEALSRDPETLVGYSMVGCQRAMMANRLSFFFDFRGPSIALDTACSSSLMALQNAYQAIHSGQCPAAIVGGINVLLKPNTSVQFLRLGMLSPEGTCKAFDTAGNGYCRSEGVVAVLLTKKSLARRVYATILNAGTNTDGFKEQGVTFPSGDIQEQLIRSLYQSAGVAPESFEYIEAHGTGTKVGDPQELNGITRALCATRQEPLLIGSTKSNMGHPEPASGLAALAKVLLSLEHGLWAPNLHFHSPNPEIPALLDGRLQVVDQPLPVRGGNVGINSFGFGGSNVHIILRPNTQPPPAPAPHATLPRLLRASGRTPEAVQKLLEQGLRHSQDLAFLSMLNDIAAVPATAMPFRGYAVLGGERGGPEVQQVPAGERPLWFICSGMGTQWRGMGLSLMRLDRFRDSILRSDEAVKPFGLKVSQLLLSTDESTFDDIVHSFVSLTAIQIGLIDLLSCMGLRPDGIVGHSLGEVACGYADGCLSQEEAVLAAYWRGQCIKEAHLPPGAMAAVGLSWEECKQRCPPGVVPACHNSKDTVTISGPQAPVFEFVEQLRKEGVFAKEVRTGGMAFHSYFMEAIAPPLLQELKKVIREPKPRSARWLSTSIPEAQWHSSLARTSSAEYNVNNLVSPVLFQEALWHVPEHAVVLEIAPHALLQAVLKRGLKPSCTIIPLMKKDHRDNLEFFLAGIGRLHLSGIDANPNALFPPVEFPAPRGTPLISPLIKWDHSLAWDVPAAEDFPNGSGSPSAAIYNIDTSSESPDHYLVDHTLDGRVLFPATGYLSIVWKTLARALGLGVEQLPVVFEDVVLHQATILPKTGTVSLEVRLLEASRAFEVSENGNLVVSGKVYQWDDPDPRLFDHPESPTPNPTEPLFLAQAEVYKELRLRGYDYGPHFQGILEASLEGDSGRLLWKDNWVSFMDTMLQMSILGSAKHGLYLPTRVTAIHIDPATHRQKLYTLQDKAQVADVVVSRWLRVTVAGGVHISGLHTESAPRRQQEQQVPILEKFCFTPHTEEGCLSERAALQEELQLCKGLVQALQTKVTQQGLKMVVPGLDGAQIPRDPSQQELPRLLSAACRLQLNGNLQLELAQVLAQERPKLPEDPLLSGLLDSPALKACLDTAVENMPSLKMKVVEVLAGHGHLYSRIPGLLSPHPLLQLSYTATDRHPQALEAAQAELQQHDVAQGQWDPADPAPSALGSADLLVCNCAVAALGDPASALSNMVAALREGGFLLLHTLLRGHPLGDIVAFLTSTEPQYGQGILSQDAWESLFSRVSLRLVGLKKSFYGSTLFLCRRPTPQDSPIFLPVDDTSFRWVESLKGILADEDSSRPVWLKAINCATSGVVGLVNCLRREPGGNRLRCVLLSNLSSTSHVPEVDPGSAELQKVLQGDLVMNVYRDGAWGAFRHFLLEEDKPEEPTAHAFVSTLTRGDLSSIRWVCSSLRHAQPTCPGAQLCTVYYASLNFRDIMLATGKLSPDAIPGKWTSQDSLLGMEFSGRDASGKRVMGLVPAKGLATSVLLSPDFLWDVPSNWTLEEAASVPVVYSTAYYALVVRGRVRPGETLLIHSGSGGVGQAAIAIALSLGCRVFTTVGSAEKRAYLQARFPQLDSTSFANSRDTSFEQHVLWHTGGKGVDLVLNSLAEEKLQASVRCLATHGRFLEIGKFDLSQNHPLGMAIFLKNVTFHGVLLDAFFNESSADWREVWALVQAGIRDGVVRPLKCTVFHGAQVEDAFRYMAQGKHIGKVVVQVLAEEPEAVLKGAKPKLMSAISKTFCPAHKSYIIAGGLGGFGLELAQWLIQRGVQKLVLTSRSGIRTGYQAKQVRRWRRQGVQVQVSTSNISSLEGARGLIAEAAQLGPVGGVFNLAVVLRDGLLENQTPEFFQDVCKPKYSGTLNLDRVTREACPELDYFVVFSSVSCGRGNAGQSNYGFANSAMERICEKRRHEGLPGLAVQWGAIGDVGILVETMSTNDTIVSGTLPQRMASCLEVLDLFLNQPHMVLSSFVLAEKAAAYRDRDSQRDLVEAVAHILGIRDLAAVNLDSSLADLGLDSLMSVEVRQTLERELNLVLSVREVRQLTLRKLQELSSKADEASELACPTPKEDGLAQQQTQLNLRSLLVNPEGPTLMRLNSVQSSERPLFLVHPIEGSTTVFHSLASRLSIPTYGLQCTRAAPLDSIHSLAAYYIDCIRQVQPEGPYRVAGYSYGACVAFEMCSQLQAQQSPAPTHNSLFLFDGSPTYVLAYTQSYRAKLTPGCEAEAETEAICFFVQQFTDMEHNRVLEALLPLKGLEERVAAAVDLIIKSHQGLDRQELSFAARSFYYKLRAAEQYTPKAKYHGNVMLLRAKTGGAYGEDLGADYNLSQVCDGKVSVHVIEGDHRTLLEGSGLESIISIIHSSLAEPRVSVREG
measurement notes: inhibition of human FAS-TE enzyme activity – biochemical, endpoint fluorescence intensity, uHTS hits, dose response (AID 624327);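 note: fluorescence from hydrolysis of an O-methyl fluorescein acyl ester substrate by the enzyme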
Format: functional
Active and inactive are the calls of the source. Cut-off read from the data, not from the text of the source: active = IC50 of 20 µM or less and inactive = more.
Examples of molecules with documented IC50 follow.

Study these solved cases before continuing.
CCOC(=O)C1=CC[C@H]2c3c(c4ccccc4n3C)C(=O)C1N2C(=O)OC(C)(C)C = 10.8 µM (active)
Cn1c(=O)c2nc(COc3ccc(C(C)(C)C)cc3)[nH]c2n(C)c1=O = 4.28 µM (active)
COc1ccc(-c2cc([N+](=O)[O-])ccc2OCC(=O)N(C)CC(=O)Nc2ccc(C)cc2)cc1 = 7.56 µM (active)
CNC(=O)/C(=C\C=C\c1ccccc1)NC(=O)c1ccc([N+](=O)[O-])cc1 = 0.786 µM (active)

[ask] Consider the molecule Cc1cc(C(=O)N/N=C/c2cc([N+](=O)[O-])ccc2O)c2ccccc2n1 and give its measured IC50.
[reply] 3.18 µM (active)
